# System: UACC-257 melanoma
# procedureText: NCI-60 one-dose screen, 48 h (100 = growth as untreated, 0 = no growth, -100 = all killed)
# conditionContext: 10 µM unless noted
The panel holds about 83,000 compounds, 20% with a hit somewhere; the sample as a whole holds those more often.
endpointLabel: growth (%)
# unit: % | format: bare number

Illustrative cases are given below, each with its answer.
>>> print(df.to_string())
                                   molecule         targetdesc  observedvalue
0     Cc1ccc(Nc2nnc(-c3ccc(Cl)cc3)o2)c(C)c1  UACC-257 melanoma           87.8
1  NC(=S)N/N=C(/CCN1CCCC1)CC(C1=C(O)C2=CCCCC2OC1=O)c1ccccc1 (centres undefined)  UACC-257 melanoma           73.1
2  O=C1/C(=C/c2ccccc2)CN(C(=O)CCN2CCC(=NO)CC2)C/C1=C\c1ccccc1  UACC-257 melanoma           11.3
3          CNc1ccc(Br)c2c1C(=O)c1ccccc1C2=O  UACC-257 melanoma            121
4  C=C1CC2(OC1=O)C(=O)N(CCCN1C(=O)C3(CC(=C)C(=O)O3)c3ccccc31)c1ccccc12 (centres undefined)  UACC-257 melanoma           30.4

Give its growth value. Item: COC(=O)c1nc(-c2ccccc2)oc1S(=O)(=O)N1CCN(c2cccc(Cl)c2)CC1
80.2
